- System: CpomOR6a
- protocolSummary: Single sensillum recordings, CpomOR6a expressed in Drosophila at1 OSNs
- Type: cell-based, Cydia pomonella
- testSettings: replicate 8; 10 μg per stimulus
Attribute: Spike/s

{"compound": "C/C=C/CCCCCCCCCOC(C)=O [(E)-10:12Ac, (E)-10-dodecadien-1-yl acetate]", "testedOn": "CpomOR6a", "Spike/s / Spike/s": 66}
{"compound": "CCC/C=C\\CCCCCCCOC(C)=O [(Z)-8:12Ac, (Z)-8-dodecadien-1yl acetate]", "testedOn": "CpomOR6a", "Spike/s / Spike/s": 6}
{"compound": "C/C=C/C=C/CCCCCCCO [codlemone, (E,E)-8,10-dodecadien-1-ol]", "testedOn": "CpomOR6a", "Spike/s / Spike/s": 0}
{"compound": "C/C=C\\C=C/CCCCCCCOC(C)=O [(Z,Z)-8,10:12Ac, (Z,Z)-8,10-dodecadien-1yl acetate]", "testedOn": "CpomOR6a", "Spike/s / Spike/s": 32}
{"compound": "CCCCC/C=C\\C=C\\C(=O)OCC [(E,Z)-ED, ethyl-(E,Z)-2,4-decadienoate]", "testedOn": "CpomOR6a", "Spike/s / Spike/s": -2}
{"compound": "C/C=C/C=C/CCCCCCCOC(C)=O [codlemone acetate, (E,E)-8,10-dodecadien-1-yl acetate]", "testedOn": "CpomOR6a", "Spike/s / Spike/s": 62}
